- MEASURED TARGET: T1, LNX2_2, Q8N448
- T1 sequence (Q8N448 334-432, limits assumed, looked up): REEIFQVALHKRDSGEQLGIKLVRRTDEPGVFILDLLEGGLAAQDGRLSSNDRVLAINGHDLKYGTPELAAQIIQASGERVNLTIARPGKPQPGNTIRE
- ASSAY NAME: holdup assay
- Set-up: key: below the threshold = too weak to quantify, mostly under pKd 3.1 to 4
- CONDITIONS: plain residues with an end cap or a label only (N-terminal biotin on a linker: ttds)
PARAMETER: pKd
Lab note: jot down the number only; don't add units.

Some solved entries appear below for comparison.
> print(dat)
                          binder   val
1      SGGKRKETLV [NET1, Q7Z628]  4.66
2  PPRQRSETQV [HPV82-E6, Q9IR59]  3.73

Field: next binder
Suppose we examine the binder GRLLGLETNV [ARHGEF26, Q96DR7] ; what pKd value has been reported? 4.13

// provenance: paper PMC9482650
